Molecular target: Serine/threonine-protein kinase ULK2 (Homo sapiens, UniProt Q8IYT8)
Sequence (Q8IYT8 whole entry, the tested form may be a part): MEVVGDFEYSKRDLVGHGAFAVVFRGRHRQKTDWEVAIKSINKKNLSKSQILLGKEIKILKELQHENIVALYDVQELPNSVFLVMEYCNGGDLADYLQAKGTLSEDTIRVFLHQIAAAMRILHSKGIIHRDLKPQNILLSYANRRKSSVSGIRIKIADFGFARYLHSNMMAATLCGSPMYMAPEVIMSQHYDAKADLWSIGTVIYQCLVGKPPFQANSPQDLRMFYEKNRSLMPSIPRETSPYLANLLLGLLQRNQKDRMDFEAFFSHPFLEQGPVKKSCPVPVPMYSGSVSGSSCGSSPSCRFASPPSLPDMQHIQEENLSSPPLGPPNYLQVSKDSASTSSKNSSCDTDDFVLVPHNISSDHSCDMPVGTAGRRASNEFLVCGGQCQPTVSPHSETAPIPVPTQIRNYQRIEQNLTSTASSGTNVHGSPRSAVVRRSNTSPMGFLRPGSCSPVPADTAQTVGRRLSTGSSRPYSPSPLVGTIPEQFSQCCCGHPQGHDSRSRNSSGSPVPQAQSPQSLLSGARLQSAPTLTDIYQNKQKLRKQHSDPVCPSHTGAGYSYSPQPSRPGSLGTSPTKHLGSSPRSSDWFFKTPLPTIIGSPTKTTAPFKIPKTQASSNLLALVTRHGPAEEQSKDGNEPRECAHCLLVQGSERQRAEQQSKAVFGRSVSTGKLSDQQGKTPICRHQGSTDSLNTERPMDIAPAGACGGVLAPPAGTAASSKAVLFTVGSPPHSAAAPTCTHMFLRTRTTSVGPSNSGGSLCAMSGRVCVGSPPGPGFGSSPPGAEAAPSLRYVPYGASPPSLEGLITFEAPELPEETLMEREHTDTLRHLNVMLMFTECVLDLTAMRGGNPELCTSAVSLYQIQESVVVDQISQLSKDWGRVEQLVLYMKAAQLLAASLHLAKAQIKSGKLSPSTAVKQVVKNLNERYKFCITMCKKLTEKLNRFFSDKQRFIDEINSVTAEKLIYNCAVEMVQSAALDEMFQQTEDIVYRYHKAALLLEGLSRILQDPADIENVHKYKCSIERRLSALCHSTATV
Assay: Inhibition of SUMO-tagged ULK2 (unknown origin) kinase domain expressed in KRX cells using [32P]-gamma-ATP and myelin basic protein substrate incubated for 7 mins
pIC50: −log10 of the molar value.

smilesNotation: c1ccc2c(Nc3cc(C4CCC4)[nH]n3)nc(Nc3ccc4[nH]cnc4c3)nc2c1
pIC50: 7.89
--
smilesNotation: O=C(NCCCNc1nc(Nc2cccc(NC(=O)N3CCCC3)c2)ncc1I)c1cccs1
pIC50: 6.51
--
smilesNotation: O=C(NCCCNc1nc(Nc2cccc(NC(=O)N3CCCC3)c2)ncc1I)C1CC1
pIC50: 6.70
--
smilesNotation: NCCCNc1nc(Nc2cccc(NC(=O)N3CCCC3)c2)ncc1I
pIC50: 6.44

* * *

Molecular target: Serine/threonine-protein kinase ULK1 (Homo sapiens, UniProt O75385)
Sequence (O75385 whole entry, the tested form may be a part): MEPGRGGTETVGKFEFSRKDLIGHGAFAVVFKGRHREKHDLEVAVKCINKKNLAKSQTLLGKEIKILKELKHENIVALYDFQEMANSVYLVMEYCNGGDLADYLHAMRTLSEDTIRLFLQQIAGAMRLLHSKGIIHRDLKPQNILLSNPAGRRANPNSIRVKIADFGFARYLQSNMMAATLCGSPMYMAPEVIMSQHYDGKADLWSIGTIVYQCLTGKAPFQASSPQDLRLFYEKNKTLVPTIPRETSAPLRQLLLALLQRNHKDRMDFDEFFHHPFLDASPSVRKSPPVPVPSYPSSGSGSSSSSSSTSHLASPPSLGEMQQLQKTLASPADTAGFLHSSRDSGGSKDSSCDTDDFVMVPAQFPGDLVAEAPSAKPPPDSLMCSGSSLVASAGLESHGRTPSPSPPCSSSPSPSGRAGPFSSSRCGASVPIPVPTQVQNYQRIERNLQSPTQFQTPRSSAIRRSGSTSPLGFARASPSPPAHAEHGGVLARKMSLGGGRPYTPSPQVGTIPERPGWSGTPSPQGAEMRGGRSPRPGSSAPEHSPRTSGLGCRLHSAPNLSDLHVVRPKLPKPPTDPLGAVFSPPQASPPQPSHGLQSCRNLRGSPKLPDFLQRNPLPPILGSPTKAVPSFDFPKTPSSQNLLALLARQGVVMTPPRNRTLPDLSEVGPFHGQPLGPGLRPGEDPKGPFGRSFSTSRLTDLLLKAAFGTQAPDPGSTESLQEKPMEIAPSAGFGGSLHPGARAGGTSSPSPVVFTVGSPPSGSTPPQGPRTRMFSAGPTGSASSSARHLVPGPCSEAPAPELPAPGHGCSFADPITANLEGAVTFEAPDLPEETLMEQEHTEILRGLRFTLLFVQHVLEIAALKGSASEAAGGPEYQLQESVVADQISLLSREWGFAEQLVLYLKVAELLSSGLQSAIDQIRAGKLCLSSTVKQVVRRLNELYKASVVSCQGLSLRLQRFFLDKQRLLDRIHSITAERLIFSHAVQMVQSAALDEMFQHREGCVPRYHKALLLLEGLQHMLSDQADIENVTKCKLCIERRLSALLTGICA
Experiment: Inhibition of SUMO-tagged ULK1 (unknown origin) kinase domain expressed in KRX cells using [32P]-gamma-ATP and myelin basic protein substrate incubated for 7 mins
# IC50 per record follows
measurementLabel: IC50

smilesNotation: O=C(NCCCNc1nc(Nc2cccc(NC(=O)N3CCCC3)c2)ncc1I)C1CC1
result: 67 nM

smilesNotation: NCCCNc1nc(Nc2cccc(NC(=O)N3CCCC3)c2)ncc1I
result: 120 nM

smilesNotation: O=C(NCCCNc1nc(Nc2cccc(NC(=O)N3CCCC3)c2)ncc1I)c1cccs1
result: 87 nM

* * *

Target: UniProt O15530
Sequence (O15530 whole entry): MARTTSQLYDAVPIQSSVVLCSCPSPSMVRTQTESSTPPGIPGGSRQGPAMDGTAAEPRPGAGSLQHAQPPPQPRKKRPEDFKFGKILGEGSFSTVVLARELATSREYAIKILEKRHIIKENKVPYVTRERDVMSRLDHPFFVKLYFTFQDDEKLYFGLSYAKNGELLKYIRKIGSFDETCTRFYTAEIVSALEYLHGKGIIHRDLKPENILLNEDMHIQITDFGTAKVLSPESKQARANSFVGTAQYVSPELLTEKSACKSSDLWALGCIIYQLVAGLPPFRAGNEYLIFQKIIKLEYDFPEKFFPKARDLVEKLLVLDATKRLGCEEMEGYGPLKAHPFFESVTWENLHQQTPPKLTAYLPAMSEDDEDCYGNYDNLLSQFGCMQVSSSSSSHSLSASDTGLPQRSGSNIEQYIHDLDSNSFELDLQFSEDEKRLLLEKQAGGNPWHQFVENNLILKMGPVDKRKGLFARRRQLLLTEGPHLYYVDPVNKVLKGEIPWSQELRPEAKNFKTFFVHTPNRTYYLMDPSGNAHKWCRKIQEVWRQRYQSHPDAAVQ
Experiment: Inhibition of recombinant PDK1 (unknown origin) using PDK1tide substrate incubated for 7 mins
measurementLabel: IC50

smilesNotation: c1ccc2c(Nc3cc(C4CCC4)[nH]n3)nc(Nc3ccc4[nH]cnc4c3)nc2c1
result: 420 nM
--
smilesNotation: NCCCNc1nc(Nc2cccc(NC(=O)N3CCCC3)c2)ncc1I
result: 710 nM
--
smilesNotation: O=C(NCCCNc1nc(Nc2cccc(NC(=O)N3CCCC3)c2)ncc1I)c1cccs1
result: 65 nM
--
smilesNotation: O=C(NCCCNc1nc(Nc2cccc(CN3CCOCC3)c2)ncc1C1CC1)C1CCC1
result: 421 nM
--
smilesNotation: O=C(NCCCNc1nc(Nc2cccc(NC(=O)N3CCCC3)c2)ncc1I)C1CC1
result: 56 nM
